protocolNotes: chemical genetic growth profiling, strain panel (AID 1159580);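 further: tested at 20 µM; growth read once vehicle control cultures reached saturation at 30 °C; 1 = growth at the plate median or of vehicle wells; lower values mean less growth of the strain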
conditionNotes: S. cerevisiae deletion strains, growth OD, locus YNL067W, strain RPL9B, active compounds read low
The campaign covered roughly 5,500 compounds. About 2,000 (36%) were called active. Another 18% or so got no clear call; they are omitted. Some of the results follow.
The label is Fulfilled for normalized growth below 1 and Not fulfilled for normalized growth equal to or exceeding 1.

Strictly below 1: is that where normalized growth of C=CCc1ccc(O)c(OC)c1 sits?
Fulfilled

Strictly below 1: is that where normalized growth of CCC(C)C(=O)OC1CC2(C)C(c3ccoc3)OC(=O)CC23OC2(C)OC34C(OC(=O)C(C)C)C3(O)C(OC(=O)C5(C)OC5C)C5(C)CC3(O)C(C)(C5C(=O)OC)C14O2 (stereo not drawn) sits?
Not fulfilled

Strictly below 1: is that where normalized growth of O=C(OCC(O)CO)c1ccccc1Nc1ccnc2cc(Cl)ccc12 (stereo not drawn) sits?
Fulfilled

Strictly below 1: is that where normalized growth of COc1ccc2c(c1)OC/C(=C/c1ccc(OC)c(OC)c1)C2=O sits?
Fulfilled

Strictly below 1: is that where normalized growth of NCCC(O)C(=O)NC1CC(N)C(OC2OC(CN)C(O)C(O)C2N)C(OC2OC(CO)C(O)C2O)C1O (stereo not drawn) sits?
Not fulfilled

Strictly below 1: is that where normalized growth of O=S(=O)(O)CCS sits?
Not fulfilled

Strictly below 1: is that where normalized growth of CCn1cc(C(=O)O)c(=O)c2cc(F)c(N3CCNC(C)C3)c(F)c21 (stereo not drawn) sits?
Not fulfilled

Strictly below 1: is that where normalized growth of c1ccc2c(c1)sc1ccccc12 sits?
Fulfilled

Strictly below 1: is that where normalized growth of CCC(C)C(=O)O[C@@H]1C[C@@]2(C)[C@H](c3ccoc3)OC(=O)CC23OC2(C)OC34[C@H](OC(=O)C(C)C)[C@@]3(O)[C@@H](OC(=O)C5(C)OC5C)[C@@]5(C)C[C@]3(O)[C@@](C)([C@H]5CC(=O)OC)C14O2 (stereo partly drawn) sits?
Not fulfilled

Strictly below 1: is that where normalized growth of Cn1c(=O)c2c(ncn2CC(O)CO)n(C)c1=O (stereo not drawn) sits?
Fulfilled

Strictly below 1: is that where normalized growth of COc1ccc2c(c1)OC/C(=C\c1ccc(OC)c(O)c1)C2=O sits?
Fulfilled

Strictly below 1: is that where normalized growth of CC(=O)O[C@H]1C[C@@H](OC(C)=O)C(C)(C)C2CC(=O)[C@]3(C)C(CC[C@@]4(C)[C@H](C(=O)O)OC(=O)C5OC543)[C@]21C (stereo partly drawn) sits?
Not fulfilled

Strictly below 1: is that where normalized growth of CCC(C)C(=O)O[C@@H]1C[C@@]2(C)[C@H](c3ccoc3)OC(=O)CC23OC2(C)O[C@]14[C@]1(C)[C@@H](CC(=O)OC)C5(C)CC1(O)[C@](O)(C5OC(=O)C1(C)OC1C)[C@@H](OC(C)=O)[C@]34O2 (stereo partly drawn) sits?
Not fulfilled

Strictly below 1: is that where normalized growth of C=CCc1ccc(OC(=O)c2ccccc2)c(OC)c1 sits?
Fulfilled

Strictly below 1: is that where normalized growth of O=C1C(Cl)=C(Cl)C(=O)C(Cl)=C1Cl sits?
Fulfilled

====

protocolNotes: chemical genetic growth profiling, strain panel (AID 1159580)
conditionNotes: S. cerevisiae deletion strains, growth OD, locus YDR069C, strain doa4, active compounds read low
Hit rate of the full screen: of about 5,500 compounds, about 2,000 (36%) were called active. Not shown: some 18% with an inconclusive outcome. The list shows a part of the results.
The label is rule met for normalized growth below 1 and rule not met for normalized growth equal to or exceeding 1.

Strictly below 1: is that where normalized growth of C/C=C(\C)C(=O)O[C@H]1C[C@@H](OC(C)=O)[C@@]2(C(=O)OC)CO[C@@H]3C2[C@]12CO[C@](O)(C(=O)OC)[C@H]2[C@](C)(C12O[C@@]1(C)[C@H]1C[C@@H]2OC2OC=C[C@@]21O)[C@@H]3O (stereo partly drawn) sits?
rule met

Strictly below 1: is that where normalized growth of CCCCCCCCCCCCCc1ccco1 sits?
rule met

Strictly below 1: is that where normalized growth of CCC[C@H](N[C@@H](C)C(=O)N1[C@H](C(=O)O)C[C@@H]2CCCC[C@@H]21)C(=O)OCC sits?
rule not met

Strictly below 1: is that where normalized growth of CC(=O)S[C@@H]1CC2=CC(=O)CC[C@]2(C)[C@H]2CC[C@@]3(C)[C@@H](CC[C@@]34CCC(=O)O4)C12 (stereo partly drawn) sits?
rule not met

Strictly below 1: is that where normalized growth of C=CCCCCCCCCCCCc1ccco1 sits?
rule met

Strictly below 1: is that where normalized growth of O=C1C(Cl)=C(Cl)C(=O)C(Cl)=C1Cl sits?
rule met

Strictly below 1: is that where normalized growth of CN(C)CCN(Cc1ccccc1)c1ccccn1 sits?
rule not met

====

protocolNotes: chemical genetic growth profiling, strain panel (AID 1159580);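 further: tested at 20 µM; growth read once vehicle control cultures reached saturation at 30 °C; 1 = growth at the plate median or of vehicle wells; lower values mean less growth of the strain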
conditionNotes: S. cerevisiae deletion strains, growth OD, locus YDR388W, active compounds read low
Out of some 5,500 compounds screened, about 2,000 (36%) were called active. Not shown: some 18% with an inconclusive outcome. The list shows a part of the results.
Provide the reported normalized growth of each item.
Could you keep your reply to the number by itself?

get_value(item= Cc1ncc(CNC(=O)N(CCCl)N=O)c(N)n1 , readout=normalized growth) returns 0.986

get_value(item= NS(=O)(=O)c1cc2c(cc1Cl)NC=NS2(=O)=O , readout=normalized growth) returns 0.997

get_value(item= CC1(C)S[C@@H]2[C@H](NC(=O)[C@H](N)c3ccccc3)C(=O)N2[C@H]1C(=O)O , readout=normalized growth) returns 1

get_value(item= C=C1C2CC[C@@]3(C)[C@H](c4ccoc4)OC(=O)C[C@]13O[C@H]1CC(=O)C(C)(C)[C@H](C(OC(C)=O)C(=O)OC)[C@@]21C (some centres undefined) , readout=normalized growth) returns 1.01

get_value(item= C=CCc1ccc(O)c(OC)c1 , readout=normalized growth) returns 0.944

get_value(item= COC(=O)C[C@H]1C2(C)CC34OC5(C)O[C@@]6([C@H](OC)C(OC(=O)C(C)C)[C@]7(C)C(/C(=C(/OC)C(C)C)C(=O)O[C@H]7c7ccoc7)[C@@]6(O5)[C@H](OC)[C@@]3(OC)C2OC(C)=O)[C@]14C (some centres undefined) , readout=normalized growth) returns 1.02

get_value(item= NCCCS(=O)(=O)O , readout=normalized growth) returns 0.997

get_value(item= c1ccc2c(c1)sc1ccccc12 , readout=normalized growth) returns 0.971

get_value(item= CCC(C)C(=O)OC1CC2(C)C(c3ccoc3)OC(=O)CC23OC2(C)OC34C(OC(=O)C(C)C)C3(O)C(OC(=O)C5(C)OC5C)C5(C)CC3(O)C(C)(C5C(=O)OC)C14O2 (centres undefined) , readout=normalized growth) returns 1.02

====

protocolNotes: chemical genetic growth profiling, strain panel (AID 1159580);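 further: tested at 20 µM; growth read once vehicle control cultures reached saturation at 30 °C; 1 = growth at the plate median or of vehicle wells; lower values mean less growth of the strain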
conditionNotes: S. cerevisiae deletion strains, growth OD, locus YNL128W, strain TEP1, active compounds read low
The campaign covered roughly 5,500 compounds. About 2,000 (36%) were called active. Not shown: some 18% with an inconclusive outcome. The list shows a part of the results.
The label is y for normalized growth below 1 and n for normalized growth equal to or exceeding 1.

Strictly below 1: is that where normalized growth of O=C1C2C=CC=CC2=NC(=S)N1CCN1CCC(=C(c2ccc(F)cc2)c2ccc(F)cc2)CC1 (centres undefined) sits?
n

Strictly below 1: is that where normalized growth of CC1COc2c(N3CCN(C)CC3)c(F)cc3c(=O)c(C(=O)O)cn1c23 (centres undefined) sits?
n

Strictly below 1: is that where normalized growth of Oc1cc(O)c2c(c1)O[C@H](c1ccc(O)c(O)c1)[C@@H](O)C2 sits?
y

Strictly below 1: is that where normalized growth of O=C1C(Cl)=C(Cl)C(=O)C(Cl)=C1Cl sits?
y

Strictly below 1: is that where normalized growth of Clc1ccc(C(OCCN2CCCCC2)c2ccccc2)cc1 (centres undefined) sits?
y

Strictly below 1: is that where normalized growth of COc1ccc([C@H]2Oc3c(I)c(OC)cc(OC)c3C[C@@H]2O)cc1OC sits?
n

Strictly below 1: is that where normalized growth of CN1C2CCC1CC(OC(c1ccccc1)c1ccccc1)C2 (centres undefined) sits?
y

Strictly below 1: is that where normalized growth of CN1CC(CO)=C[C@@H]2c3cccc4[nH]cc(c34)C[C@H]21 sits?
y

Strictly below 1: is that where normalized growth of COc1ccc2c(c1)OC/C(=C/c1ccc(OC)c(OC)c1)C2=O sits?
y

====

protocolNotes: chemical genetic growth profiling, strain panel (AID 1159580);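 further: tested at 20 µM; growth read once vehicle control cultures reached saturation at 30 °C; 1 = growth at the plate median or of vehicle wells; lower values mean less growth of the strain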
conditionNotes: S. cerevisiae deletion strains, growth OD, locus YJL134W, strain LCB3
The whole screen tested about 5,500 compounds, of which about 2,000 (36%) were called active. Another 18% or so got no clear call; they are omitted. Rule as the data show it: active = normalized growth mostly below about 0.91 (no sharp cut-off); inconclusive = no clear call, values can overlap the other calls; inactive = mostly above about 0.92. Some of the results follow.
Tick one outcome: active, inactive

Which result was noted for this molecule in the test: COc1ccc([C@H]2Oc3c(I)c(OC)cc(OC)c3C[C@@H]2O)cc1OC
inactive

Which result was noted for this molecule in the test: c1ccc2c(c1)CCCC2C1=NCCN1 (stereo not drawn)
inactive

Which result was noted for this molecule in the test: O=C1c2ccc(O)cc2O[C@H](c2cc(O)c(O)c(O)c2)[C@H]1O
inactive

Which result was noted for this molecule in the test: CCC1(O)CC(OC2CC(N(C)C)C(OC3CC(O)C(OC4CCC(=O)C(C)O4)C(C)O3)C(C)O2)c2c(cc3c(c2O)C(=O)c2c(O)cccc2C3=O)C1C(=O)OC (stereo not drawn)
inactive

Which result was noted for this molecule in the test: Oc1cc(O)c2c(c1)O[C@H](c1ccc(O)c(O)c1)[C@@H](O)C2
inactive

Which result was noted for this molecule in the test: NCCc1cnc[nH]1
inactive

Which result was noted for this molecule in the test: C=C1CCC2[C@](C)(CO)[C@H](O)CC[C@@]2(C)[C@@H]1C/C=C1/C(=O)OC[C@H]1O (stereo partly drawn)
inactive

Which result was noted for this molecule in the test: Oc1ccc2c(c1)O[C@H](c1ccc(O)c(O)c1)[C@@H](O)C2
inactive

Which result was noted for this molecule in the test: Oc1cc(O)c2c(c1)OC(c1cc(O)c(O)c(O)c1)C(O)C2c1c(O)cc(O)c2c1OC(c1cc(O)c(O)c(O)c1)C(O)C2c1c(O)cc(O)c2c1OC(c1cc(O)c(O)c(O)c1)C(O)C2 (stereo not drawn)
inactive

Which result was noted for this molecule in the test: C[C@]12CCC(=O)C=C1C=CC1C2CC[C@@]2(C)C1CC[C@@]2(O)CCC(=O)O (stereo partly drawn)
inactive

Which result was noted for this molecule in the test: CC(=O)O[C@H]1C[C@@H](OC(C)=O)C(C)(C)C2CC(=O)[C@]3(C)C(CC[C@@]4(C)[C@H](C(=O)O)OC(=O)C5OC543)[C@]21C (stereo partly drawn)
inactive

Which result was noted for this molecule in the test: C=C[C@@](C)(O)CCC1C(=C)CCC2[C@@](C)(CO)CCC[C@]12C (stereo partly drawn)
inactive

Which result was noted for this molecule in the test: CC(C)NCC(O)COc1cccc2[nH]ccc12 (stereo not drawn)
inactive

Which result was noted for this molecule in the test: O=c1cccc2ccc(O)c(O)c2c1O
active

Which result was noted for this molecule in the test: C/C=C(\C)C(=O)O[C@H]1C[C@@H](OC(C)=O)[C@@]2(C(=O)OC)CO[C@@H]3C2[C@]12CO[C@](O)(C(=O)OC)[C@H]2[C@](C)(C12O[C@@]1(C)[C@H]1C[C@@H]2OC2OC=C[C@@]21O)[C@@H]3O (stereo partly drawn)
inactive

Which result was noted for this molecule in the test: Oc1cc(O)c2c(c1)O[C@H](c1cc(O)c(O)c(O)c1)[C@H](O)C2
inactive

Which result was noted for this molecule in the test: CNCCC(Oc1ccc(C(F)(F)F)cc1)c1ccccc1 (stereo not drawn)
inactive

Which result was noted for this molecule in the test: CN1CC(CO)=C[C@@H]2c3cccc4[nH]cc(c34)C[C@H]21
inactive

Reference source for all entries: PubChem BioAssay AID1159580
